- System: JNK3;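 also: KINOMEscan kinase panel screen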
- Construct: gene MAPK10
- recorded_conditions: concentration: 1 μM, replicates: in singlicate; n = 1
value_type: %Inh (%)

1) O=C(Nc1cccc(-c2nn3ncccc3c2-c2ccnc(Nc3ccccc3)n2)c1)c1c(F)cccc1F ... 21
2) COc1cc(Nc2nccc(N3CCC(NC(=O)c4cc5ccccc5s4)C3)n2)cc(OC)c1OC (stereo not shown) ... 23
3) CCn1c(-c2nonc2N)nc2c(C#CC(C)(C)O)ncc(OCCCCN)c21.O=C(O)C(F)(F)F.O=C(O)C(F)(F)F ... 11
4) CCCCc1nn2ncccc2c1-c1ccnc(Nc2ccc(N3CCN(C)CC3)cc2)n1 ... 97.6
